These data points were gathered from paper PMC8478281.

system: S. aureus Mu50; assay: Minimal division inhibitory concentration, S. aureus Mu50; type: cell-based; conditions: Staphylococcus aureus, MU50, read-out: MDC S. aureus Mu50
Answer condition not met if minimal effective concentration is under 50 µM, and condition met if it is 50 µM or more.

molecule="CCC[C@H](COc1ccc(F)c(C(N)=O)c1F)Nc1cccc(C(F)(F)F)c1 [(R)-26]" category_label="condition not met"
molecule="CCC[C@@H](COc1ccc(F)c(C(N)=O)c1F)Nc1cccc(C(F)(F)F)c1 [(S)-26]" category_label="condition met"
molecule="CN(C)CCC(Oc1ccc(F)c(C(N)=O)c1F)c1cccc(C(F)(F)F)c1 (stereo not shown) [Compound 24]" category_label="condition met"
molecule="NC(=O)c1c(F)ccc(OCc2nc3cc(Cl)cnc3s2)c1F [PC190723, reference compound]" category_label="condition not met"
molecule="CCCC(COc1ccc(F)c(C(N)=O)c1F)Nc1cccc(C(F)(F)F)c1 (racemic) [rac-26]" category_label="condition not met"
molecule="NC(=O)c1c(F)ccc(OCCCc2cccc(C(F)(F)F)c2)c1F [Compound 23]" category_label="condition not met"
molecule="NC(=O)c1c(F)ccc(OCCc2cccc(C(F)(F)F)c2)c1F [Compound 22]" category_label="condition met"

###

target: FtsZ-GMPCPP polymers (BsFtsZ) (Bacillus subtilis); construct: made in house; assay: Binding titration of the fluorescent probes to FtsZ polymers by fluorescence anisotropy; conditions: FtsZ-GMPCPP polymers; best fit values from binding titrations
Sequence (P17865 whole entry): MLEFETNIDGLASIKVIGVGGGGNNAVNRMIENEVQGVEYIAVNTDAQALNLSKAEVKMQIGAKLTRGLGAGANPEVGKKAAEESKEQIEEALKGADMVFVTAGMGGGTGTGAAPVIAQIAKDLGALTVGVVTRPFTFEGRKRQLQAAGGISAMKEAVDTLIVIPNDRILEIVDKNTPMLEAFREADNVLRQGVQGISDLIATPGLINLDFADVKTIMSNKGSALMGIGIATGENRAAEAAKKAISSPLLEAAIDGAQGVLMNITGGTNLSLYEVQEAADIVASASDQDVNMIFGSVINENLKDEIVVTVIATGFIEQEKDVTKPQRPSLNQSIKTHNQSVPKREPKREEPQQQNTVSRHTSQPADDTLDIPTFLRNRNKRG
rmax (all probe bound) values by entry
reported-metric: rmax (all probe bound)

compound="NC(=O)c1c(F)ccc(OCCNc2ccc([N+](=O)[O-])c3nonc23)c1F [Compound 1, reference compound]" target_system="FtsZ-GMPCPP polymers (BsFtsZ) (Bacillus subtilis)" measured_value=0.213
compound="CCC[C@@H](CNc1ccc([N+](=O)[O-])c2nonc12)Oc1ccc(F)c(C(N)=O)c1F [(S)-2]" target_system="FtsZ-GMPCPP polymers (BsFtsZ) (Bacillus subtilis)" measured_value=0.258
compound="CCC[C@@H](COc1ccc(F)c(C(N)=O)c1F)Nc1ccc([N+](=O)[O-])c2nonc12 [(S)-5]" target_system="FtsZ-GMPCPP polymers (BsFtsZ) (Bacillus subtilis)" measured_value=0.178
compound="CCC[C@H](COc1ccc(F)c(C(N)=O)c1F)Nc1ccc([N+](=O)[O-])c2nonc12 [(R)-5]" target_system="FtsZ-GMPCPP polymers (BsFtsZ) (Bacillus subtilis)" measured_value=0.272
compound="CCC[C@H](CNc1ccc([N+](=O)[O-])c2nonc12)Oc1ccc(F)c(C(N)=O)c1F [(R)-2]" target_system="FtsZ-GMPCPP polymers (BsFtsZ) (Bacillus subtilis)" measured_value=0.067

###

system: B. subtilis; test: Minimal growth inhibitory concentration (broth macrodilution), B. subtilis; assay type: cell-based, Bacillus subtilis; conditions: Table S1, fluorescent probes
reported-metric: MIC B. subtilis (µM)

compound="CCC[C@@H](COc1ccc(F)c(C(N)=O)c1F)Nc1ccc([N+](=O)[O-])c2nonc12 [(S)-5]" reported_metric="MIC B. subtilis" limit_operator== measured_value=250
compound="CCC[C@H](COc1ccc(F)c(C(N)=O)c1F)Nc1ccc([N+](=O)[O-])c2nonc12 [(R)-5]" reported_metric="MIC B. subtilis" limit_operator== measured_value=25
compound="CCC[C@H](CNc1ccc([N+](=O)[O-])c2nonc12)Oc1ccc(F)c(C(N)=O)c1F [(R)-2]" reported_metric="MIC B. subtilis" limit_operator=> measured_value=250
compound="CCC[C@@H](CNc1ccc([N+](=O)[O-])c2nonc12)Oc1ccc(F)c(C(N)=O)c1F [(S)-2]" reported_metric="MIC B. subtilis" limit_operator== measured_value=250

###

target: BsFtsZ (Bacillus subtilis, UniProt P17865); construct: made in house; assay: Fluorescence anisotropy of probes after consecutive additions of FtsZ, GMPCPP, MgCl2 and PC190723; type: binding; conditions: probe 10 μM, FtsZ 10 μM, GMPCPP 0.1 mM
Response key: yes (1) means Fluorescence anisotropy (r): + GMPCPP >= 0.04; no (0) means Fluorescence anisotropy (r): + GMPCPP < 0.04.

compound="CCCC(CNc1ccc([N+](=O)[O-])c2nonc12)Oc1ccc(F)c(C(N)=O)c1F (centres unmarked)" category_label="yes (1)"
compound="CCC[C@@H](CNc1ccc([N+](=O)[O-])c2nonc12)Oc1ccc(F)c(C(N)=O)c1F [(S)-2]" category_label="yes (1)"
compound="CCCCCC(CNc1ccc([N+](=O)[O-])c2nonc12)Oc1ccc(F)c(C(N)=O)c1F (centres unmarked)" category_label="yes (1)"
compound="CCC[C@H](CNc1ccc([N+](=O)[O-])c2nonc12)Oc1ccc(F)c(C(N)=O)c1F [(R)-2]" category_label="yes (1)"
compound="CCCC(COc1ccc(F)c(C(N)=O)c1F)Nc1ccc([N+](=O)[O-])c2nonc12 (centres unmarked)" category_label="no (0)"
compound="NC(=O)c1c(F)ccc(OCCNc2ccc([N+](=O)[O-])c3nonc23)c1F [Compound 1, reference compound]" category_label="no (0)"

###

molecular target: BsFtsZ (Bacillus subtilis); construct: made in house; assay: Fluorescence anisotropy of probes after consecutive additions of FtsZ, GMPCPP, MgCl2 and PC190723; format: binding; conditions: probe 10 μM in buffer
I would appreciate it if you labelled entries True when Fluorescence anisotropy (r): free probe is 0.03 or higher, otherwise False.

compound="CCC[C@@H](CNc1ccc([N+](=O)[O-])c2nonc12)Oc1ccc(F)c(C(N)=O)c1F [(S)-2]" category_label=True
compound="NC(=O)c1c(F)ccc(OCCNc2ccc([N+](=O)[O-])c3nonc23)c1F [Compound 1, reference compound]" category_label=False
compound="CCCCCC(CNc1ccc([N+](=O)[O-])c2nonc12)Oc1ccc(F)c(C(N)=O)c1F (centres unmarked)" category_label=True
compound="CCCC(CNc1ccc([N+](=O)[O-])c2nonc12)Oc1ccc(F)c(C(N)=O)c1F (centres unmarked)" category_label=True
compound="CCC[C@H](COc1ccc(F)c(C(N)=O)c1F)Nc1ccc([N+](=O)[O-])c2nonc12 [(R)-5]" category_label=False
compound="CCC[C@H](CNc1ccc([N+](=O)[O-])c2nonc12)Oc1ccc(F)c(C(N)=O)c1F [(R)-2]" category_label=True
compound="CCCC(COc1ccc(F)c(C(N)=O)c1F)Nc1ccc([N+](=O)[O-])c2nonc12 (centres unmarked)" category_label=True

###

Listing of entries alongside the reported Fluorescence anisotropy (r): + PC190723.
molecular target: BsFtsZ (Bacillus subtilis); construct: made in house; assay: Fluorescence anisotropy of probes after consecutive additions of FtsZ, GMPCPP, MgCl2 and PC190723; type: binding; details: PC190723 10 μM added to the polymer, 5 min
reported-metric: Fluorescence anisotropy (r): + PC190723

compound="CCC[C@@H](CNc1ccc([N+](=O)[O-])c2nonc12)Oc1ccc(F)c(C(N)=O)c1F [(S)-2]" target_system="BsFtsZ (Bacillus subtilis)" reported_metric="Fluorescence anisotropy (r): + PC190723" measured_value=0.065
compound="CCCCCC(CNc1ccc([N+](=O)[O-])c2nonc12)Oc1ccc(F)c(C(N)=O)c1F (stereo not drawn)" target_system="BsFtsZ (Bacillus subtilis)" reported_metric="Fluorescence anisotropy (r): + PC190723" measured_value=0.135
compound="CCC[C@@H](COc1ccc(F)c(C(N)=O)c1F)Nc1ccc([N+](=O)[O-])c2nonc12 [(S)-5]" target_system="BsFtsZ (Bacillus subtilis)" reported_metric="Fluorescence anisotropy (r): + PC190723" measured_value=0.038
compound="CCCC(CNc1ccc([N+](=O)[O-])c2nonc12)Oc1ccc(F)c(C(N)=O)c1F (stereo not drawn)" target_system="BsFtsZ (Bacillus subtilis)" reported_metric="Fluorescence anisotropy (r): + PC190723" measured_value=0.053
compound="CCC[C@H](CNc1ccc([N+](=O)[O-])c2nonc12)Oc1ccc(F)c(C(N)=O)c1F [(R)-2]" target_system="BsFtsZ (Bacillus subtilis)" reported_metric="Fluorescence anisotropy (r): + PC190723" measured_value=0.051
compound="NC(=O)c1c(F)ccc(OCCNc2ccc([N+](=O)[O-])c3nonc23)c1F [Compound 1, reference compound]" target_system="BsFtsZ (Bacillus subtilis)" reported_metric="Fluorescence anisotropy (r): + PC190723" measured_value=0.029

###

experiment: MTT cytotoxicity assay; type: cell-based; settings: human, IMR90 lung fibroblast cells; IMR90, 25 µM, relative to vehicle
reported-metric: viability at 25 µM (%)

molecule="CCC[C@H](COc1ccc(F)c(C(N)=O)c1F)Nc1cccc(C(F)(F)F)c1 [(R)-26]" reported_metric="viability at 25 µM" endpoint_unit=% measured_value=100
